Assay: physchem
Conditions: 80/20 ch3oh/h2o, Solubility, Methomyl alone in solvent, alone; -6° C.
REPORTED_PROPERTY: solubility (mg/mL)
Report the figure in mg/mL without appending any unit label.

What does the data say about its solubility? Entry: CNC(=O)ON=C(C)SC
263

----------
Experiment: physchem
Conditions: 90/10 ch3oh/h2o, Solubility, Oxamyl alone in solvent, alone; -6° C.
REPORTED_PROPERTY: solubility (mg/mL)
Report the figure in mg/mL without appending any unit label.

What does the data say about its solubility? Entry: CNC(=O)ON=C(SC)C(=O)N(C)C
406

----------
Assay: physchem
Details: 50/50 ch3oh/h2o, Solubility, Methomyl alone in solvent, alone; -6° C.
REPORTED_PROPERTY: solubility (mg/mL)
Report the figure in mg/mL without appending any unit label.

What does the data say about its solubility? Entry: CNC(=O)ON=C(C)SC [Methomyl]
105

----------
Experiment: physchem
Settings: 50/50 ch3oh/h2o, Solubility, Oxamyl alone in solvent, alone; -6° C.
REPORTED_PROPERTY: solubility (mg/mL)
Report the figure in mg/mL without appending any unit label.

What does the data say about its solubility? Entry: CNC(=O)ON=C(SC)C(=O)N(C)C [Oxamyl]
290

----------
Test: physchem
Settings: 60/40 ch3oh/h2o, Solubility, both actives in solvent: Methomyl, with oxamyl, 2:1 wt.; 60/40 CH3OH/H2O; -6° C.
REPORTED_PROPERTY: solubility (mg/mL)
Report the figure in mg/mL without appending any unit label.

What does the data say about its solubility? Entry: CNC(=O)ON=C(C)SC
552

----------
Assay: physchem
Settings: 50/50 ch3oh/h2o, Solubility, both actives in solvent: Methomyl, with oxamyl, 1:2.5 wt.; 50/50 CH3OH/H2O; -6° C.
Method: Methomyl and oxamyl were added to various methanol:water solvent systems ranging from 100 wt. % CH3 OH to 30 wt. % CH3 OH:70 wt. % H2 O. […] The samples were equilibrated at -6° C. in a constant temperature freezer after which they were seeded with methomyl and oxamyl crystals to ensure crystallization of both materials. […] This solution was evaluated by thin layer chromatography (TLC) to ensure the solids consisted of both methomyl and oxamyl. […]
REPORTED_PROPERTY: solubility (mg/mL)
Report the figure in mg/mL without appending any unit label.

What does the data say about its solubility? Entry: CNC(=O)ON=C(C)SC [Methomyl]
411

----------
Assay: physchem
Settings: 40/60 ch3oh/h2o, Solubility, Methomyl alone in solvent, alone; -6° C.
REPORTED_PROPERTY: solubility
Express the reported value numerically, then name its unit.

What does the data say about its solubility? Entry: CNC(=O)ON=C(C)SC
62 mg/mL

----------
Assay: physchem
Conditions: 40/60 ch3oh/h2o, Solubility, both actives in solvent: Methomyl, with oxamyl 1:1 wt.; 40/60 CH3OH/H2O; -6° C.
REPORTED_PROPERTY: solubility
Express the reported value numerically, then name its unit.

What does the data say about its solubility? Entry: CNC(=O)ON=C(C)SC
188 mg/mL

----------
Assay: physchem
Conditions: 70/30 ch3oh/h2o, Solubility, Methomyl alone in solvent, alone; -6° C.
REPORTED_PROPERTY: solubility (mg/mL)
Report the figure in mg/mL without appending any unit label.

What does the data say about its solubility? Entry: CNC(=O)ON=C(C)SC
208

----------
Test: physchem
Conditions: 70/30 ch3oh/h2o, Solubility, Methomyl alone in solvent, alone; -6° C.
Procedure: Methomyl and oxamyl were added to various methanol:water solvent systems ranging from 100% CH3 OH to 40% CH3 OH:60% H2 O. The methomyl and oxamyl were dissolved separately or combined on a 1:1 weight ratio in the solvent systems at room temperature at a concentration exceeding the solubility limit at -6° C. Each sample was seeded with methomyl and/or oxamyl at -6° C. and allowed to crystallize until equilibrium was established. […]
REPORTED_PROPERTY: solubility (mg/mL)
Report the figure in mg/mL without appending any unit label.

What does the data say about its solubility? Entry: CNC(=O)ON=C(C)SC
208

----------
Assay: physchem
Settings: 90/10 ch3oh/h2o, Solubility, both actives in solvent: Methomyl, with oxamyl 1:1 wt.; 90/10 CH3OH/H2O; -6° C.
REPORTED_PROPERTY: solubility (mg/mL)
Report the figure in mg/mL without appending any unit label.

What does the data say about its solubility? Entry: CNC(=O)ON=C(C)SC
664

----------
Assay: physchem
Conditions: 60/40 ch3oh/h2o, Solubility, Methomyl alone in solvent, alone; -6° C.
Experimental: Methomyl and oxamyl were added to various methanol:water solvent systems ranging from 100% CH3 OH to 40% CH3 OH:60% H2 O. The methomyl and oxamyl were dissolved separately or combined on a 1:1 weight ratio in the solvent systems at room temperature at a concentration exceeding the solubility limit at -6° C. Each sample was seeded with methomyl and/or oxamyl at -6° C. and allowed to crystallize until equilibrium was established. […]
REPORTED_PROPERTY: solubility (mg/mL)
Report the figure in mg/mL without appending any unit label.

What does the data say about its solubility? Entry: CNC(=O)ON=C(C)SC
155

----------
Experiment: physchem
Conditions: 60/40 ch3oh/h2o, Solubility, Oxamyl alone in solvent, alone; -6° C.
REPORTED_PROPERTY: solubility
Express the reported value numerically, then name its unit.

What does the data say about its solubility? Entry: CNC(=O)ON=C(SC)C(=O)N(C)C [Oxamyl]
396 mg/mL

----------
Assay: physchem
Settings: 90/10 ch3oh/h2o, Solubility, Oxamyl alone in solvent, alone; -6° C.
Protocol: Methomyl and oxamyl were added to various methanol:water solvent systems ranging from 100 wt. % CH3 OH to 30 wt. % CH3 OH:70 wt. % H2 O. […] The samples were equilibrated at -6° C. in a constant temperature freezer after which they were seeded with methomyl and oxamyl crystals to ensure crystallization of both materials. […] This solution was evaluated by thin layer chromatography (TLC) to ensure the solids consisted of both methomyl and oxamyl. […]
REPORTED_PROPERTY: solubility

What does the data say about its solubility? Entry: CNC(=O)ON=C(SC)C(=O)N(C)C
404 mg/mL

----------
Experiment: physchem
Settings: 90/10 ch3oh/h2o, Solubility, Methomyl alone in solvent, alone; -6° C.
REPORTED_PROPERTY: solubility (mg/mL)
Report the figure in mg/mL without appending any unit label.

What does the data say about its solubility? Entry: CNC(=O)ON=C(C)SC
299

----------
Test: physchem
Conditions: 50/50 ch3oh/h2o, Solubility, Oxamyl alone in solvent, alone; -6° C.
REPORTED_PROPERTY: solubility (mg/mL)
Report the figure in mg/mL without appending any unit label.

What does the data say about its solubility? Entry: CNC(=O)ON=C(SC)C(=O)N(C)C
290

----------
Assay: physchem
Conditions: 40/60 ch3oh/h2o, Solubility, Oxamyl alone in solvent, alone; -6° C.
REPORTED_PROPERTY: solubility (mg/mL)
Report the figure in mg/mL without appending any unit label.

What does the data say about its solubility? Entry: CNC(=O)ON=C(SC)C(=O)N(C)C [Oxamyl]
209

----------
Assay: physchem
Conditions: 40/60 ch3oh/h2o, Solubility, both actives in solvent: Methomyl, with oxamyl, 2:1 wt.; 40/60 CH3OH/H2O; -6° C.
REPORTED_PROPERTY: solubility (mg/mL)
Report the figure in mg/mL without appending any unit label.

What does the data say about its solubility? Entry: CNC(=O)ON=C(C)SC [Methomyl]
422

----------
Assay: physchem
Conditions: 80/20 ch3oh/h2o, Solubility, both actives in solvent: Methomyl, with oxamyl 1:1 wt.; 80/20 CH3OH/H2O; -6° C.
REPORTED_PROPERTY: solubility (mg/mL)
Report the figure in mg/mL without appending any unit label.

What does the data say about its solubility? Entry: CNC(=O)ON=C(C)SC [Methomyl]
581

----------
Assay: physchem
Conditions: 90/10 ch3oh/h2o, Solubility, Methomyl alone in solvent, alone; -6° C.
REPORTED_PROPERTY: solubility (mg/mL)
Report the figure in mg/mL without appending any unit label.

What does the data say about its solubility? Entry: CNC(=O)ON=C(C)SC [Methomyl]
299

----------
Test: physchem
Settings: 50/50 ch3oh/h2o, Solubility, Oxamyl alone in solvent, alone; -6° C.
REPORTED_PROPERTY: solubility (mg/mL)
Report the figure in mg/mL without appending any unit label.

What does the data say about its solubility? Entry: CNC(=O)ON=C(SC)C(=O)N(C)C
291

----------
Experiment: physchem
Settings: 90/10 ch3oh/h2o, Solubility, both actives in solvent: Methomyl, with oxamyl, 1:2.5 wt.; 90/10 CH3OH/H2O; -6° C.
REPORTED_PROPERTY: solubility
Express the reported value numerically, then name its unit.

What does the data say about its solubility? Entry: CNC(=O)ON=C(C)SC [Methomyl]
699 mg/mL

----------
Test: physchem
Conditions: 80/20 ch3oh/h2o, Solubility, Oxamyl alone in solvent, alone; -6° C.
REPORTED_PROPERTY: solubility (mg/mL)
Report the figure in mg/mL without appending any unit label.

What does the data say about its solubility? Entry: CNC(=O)ON=C(SC)C(=O)N(C)C [Oxamyl]
448
